# method.notes: Solubility of HPC in benzyl benzoate/castor oil mixtures
# Format: physicochemical
# cond: benzyl benzoate/castor oil mixture, 5 °C, oil or lipid, 5° C., 63.33 wt % BB relative to castor oil; read-out: mg HPC/mL solution (solubility)
reported.property: solubility (mg/mL)
Response body: numeric value in mg/mL, unit text excluded.

In: Request the reported solubility associated with CCCCCC(=O)O[C@]1(C(C)=O)CC[C@H]2[C@@H]3CCC4=CC(=O)CC[C@]4(C)[C@H]3CC[C@@]21C [17-HPC, 17-alpha-hydroxyprogesterone caproate]
Out: 222

* * *

# method.notes: Randomized bioavailability study of 17-HPC, SC injection in triceps area (1.1 or 1.2 mL) vs IM injection (1.0 mL)
# Format: in vivo, human
# cond: female, human, plasma, sc, 300 mg, SC 1.2 mL (300 mg) triceps area; read-out: AUC(0-t), geometric mean (geometric CV)
reported.property: AUC(0-t) (ng·h/mL)
Response body: numeric value in ng·h/mL, unit text excluded.

In: Request the reported AUC(0-t) associated with CCCCCC(=O)O[C@]1(C(C)=O)CC[C@H]2[C@@H]3CCC4=CC(=O)CC[C@]4(C)[C@H]3CC[C@@]21C [17-HPC, 17-alpha-hydroxyprogesterone caproate]
Out: 2940
